Assay: Inhibition of GABA-T
Parameters: species or system Rattus norvegicus
RECORDED ENDPOINT: pKi
Please note pKi is a logarithmic value: minus log10 of concentration in mol/L. Answer with that number alone.

Hello, please tell me recorded pKi for this one: `C=CC(=O)c1ccc(O)cc1`
3.33

Where do the numbers come from? From ChEMBL document CHEMBL1138942.
